Experiment: refractive index (Na D-line) (dimensionless)
Settings: 298.15 K; 101.33 kPa; Liquid; Standard Abbe refractometry
Reported values of refractive index for individual entries
Keep it simple and answer with nothing but the number.

CC(=O)c1ccccc1 [acetophenone]: 1.5342
CN(C)C=O [dimethylformamide]: 1.4219
Nc1ccccc1 [aniline]: 1.5836
Brc1ccccc1 [bromobenzene]: 1.5571
Clc1ccccc1 [chlorobenzene]: 1.5218

Alright, here's another compound for you.
Quick check: refractive index of CC(=O)N(C)C [N,N-dimethylethanamide] ?
1.4357

* * *

Details: 298.15 K; 101.33 kPa; Liquid
Label fulfilled when mass density is at or above 1000 kg/m3; otherwise label not fulfilled.

These solved cases illustrate the format of a correct answer.
CN(C)C=O [dimethylformamide]: not fulfilled
Clc1ccccc1: fulfilled
CC(=O)N(C)C [N,N-dimethylethanamide]: not fulfilled

Please tell me: is the compound Brc1ccccc1 at or over 1000 kg/m3 in terms of mass density?
fulfilled
